I'd appreciate it if you could supply Quantum yield values for the items below.
assay: Steady state fluorescence spectra and quantum yield; format: physicochemical; settings: in complex with biliverdin

Let me know recorded Quantum yield for SFP-FH88insGG: L135E monoSFP extended with glycine residues at position 88, SEQ ID NO:5 (protein) MFIKPGRCPKPAVQEDFDAARYLGVWYDIQRLPNKFQKGECATATYSLSPGVGFSVFNRERLANGTIKSVIGSAIAEDPCEPAKLQFGGFHENAAPVPYWVLSTDYDNYALVYSCINEGASHAAYASIVSRQPTLPEETIKKLQGTMSSFGVGVDTLLTTNQDAAYCSAMNQ , thanks.
0.002

Respond only with Quantum yield recorded for SFP-VP95insGG: L135E monoSFP extended with glycine residues at position 95, SEQ ID NO:6 (protein) MFIKPGRCPKPAVQEDFDAARYLGVWYDIQRLPNKFQKGECATATYSLSPGVGFSVFNRERLANGTIKSVIGSAIAEDPCEPAKLQFFHENAAPGGVPYWVLSTDYDNYALVYSCINSFEGASHAAYASIVSRQPTLPEETIKKLQGTMSSFGVGVDTLLTTNQDAAYCSAMNQ
0.003
